Source: ChEMBL document CHEMBL1147825

tested on: Leishmania amazonensis; experiment: Leishmanicidal activity against Leishmania amazonensis promastigote form at 100 ug/mL; type: functional
Activity calls are given as the source filed them. The calls are words filed in the database; no cut-off is given here.
READOUT KIND: Activity

Solved entries:
CC1(C)[N+]([O-])=c2ccc(C3OCCO3)cc2=[N+]1[O-] | 100%
Cc1n(O)c2ccccc2[n+]1[O-] | inactive
CC1(C)[N+]([O-])=c2ccccc2=[N+]1[O-] | 100%
CCOC(=O)c1[nH]c2ccc([N+](=O)[O-])cc2[n+]1[O-] | inactive

Go through the items and report each one's Activity.
1. CCOC(=O)c1ccc2[nH]c(C(=O)OCC)[n+]([O-])c2c1
2. CC1(C)[N+]([O-])=c2ccc(/C=N/O)cc2=[N+]1[O-]

Reply:
inactive
100%

* * *

test system: Leishmania amazonensis; experiment: Leishmanicidal activity against Leishmania amazonensis promastigote form at 100 ug/mL; assay type: functional
The source made the active and inactive calls. The calls are words filed in the database; no cut-off is given here.
READOUT KIND: Activity

Solved entries:
Cc1ccc2c(c1)[n+]([O-])c(C)n2O | inactive
COc1ccc2c(c1)=[N+]([O-])C(C)(C)[N+]=2[O-] | 70%
N=C(N)c1ccc(OCCCCCOc2ccc(C(=N)N)cc2)cc1 [PENTAMIDINE] | 100%
Cc1ccc2c(c1)=[N+]([O-])C(C)(C)[N+]=2[O-] | 70%

Now for another entry.
Ask: Activity lookup needed for COc1ccc2c(c1)[n+]([O-])c(C)n2O , thanks.
Reply: inactive
